Test system: Plasmodium berghei
TEST_DETAILS: Luciferase/luciferin-expressing antifolate-resistant parasites were used to infect a culture of HepG2 cells that were pre-incubated with compounds. Infected hepatocytes emit light due to the luciferase reaction. Assay results are presented as the percent inhibition of light emission compared to control. […]
Format: functional
ASSAY_CONDITIONS: sporozoite, PBLUC_HILL_SLOPE 1.66, PBLUC_R_SQUARED 0.494, read-out: LUCIFERASE INFECTION ASSAY - IC50
ATTRIBUTE_MEASURED: IC50
Returns: string containing the number followed by the unit.

**Q:** Query IC50 on Plasmodium berghei for `CN(c1ccccc1)S(=O)(=O)c1ccc(C(=O)N2CCN(Cc3ccc(Cl)s3)CC2)cc1`
**A:** 8.02 µM

----------
Tested on: Plasmodium berghei
TEST_DETAILS: Luciferase/luciferin-expressing antifolate-resistant parasites were used to infect a culture of HepG2 cells that were pre-incubated with compounds. Infected hepatocytes emit light due to the luciferase reaction. Assay results are presented as the percent inhibition of light emission compared to control. […]
Format: functional
ASSAY_CONDITIONS: sporozoite, HEPG2TOX_HILL_SLOPE 11.5, HEPG2TOX_R_SQUARED 0.674, read-out: LUCIFERASE INFECTION ASSAY - IC50
ATTRIBUTE_MEASURED: IC50

**Q:** Need IC50 of `O=[N+]([O-])c1cc(-c2nc(-c3cc(C(F)(F)F)cc(C(F)(F)F)c3)no2)cs1` , thanks.
**A:** > 8.06 µM

----------
System: Plasmodium berghei
TEST_DETAILS: Luciferase/luciferin-expressing antifolate-resistant parasites were used to infect a culture of HepG2 cells that were pre-incubated with compounds. Infected hepatocytes emit light due to the luciferase reaction. Assay results are presented as the percent inhibition of light emission compared to control. […]
Format: functional
ASSAY_CONDITIONS: sporozoite, FFLUC_HILL_SLOPE 22, FFLUC_R_SQUARED 0.674, read-out: LUCIFERASE INFECTION ASSAY - IC50
pIC50: −log10 of the molar value.
ATTRIBUTE_MEASURED: pIC50

**Q:** Need pIC50 of `CCn1c(-c2ccccc2)c(C(=O)Cn2ncc(Cl)c(Cl)c2=O)c2ccccc21` , thanks.
**A:** < 5.00

----------
Test system: Plasmodium berghei
TEST_DETAILS: Luciferase/luciferin-expressing antifolate-resistant parasites were used to infect a culture of HepG2 cells that were pre-incubated with compounds. Infected hepatocytes emit light due to the luciferase reaction. Assay results are presented as the percent inhibition of light emission compared to control. […]
Format: functional
ASSAY_CONDITIONS: sporozoite, HEPG2TOX_HILL_SLOPE 3.32, HEPG2TOX_R_SQUARED 0.957, PBLUC_HILL_SLOPE 18.3, PBLUC_R_SQUARED 0.283, read-out: LUCIFERASE INFECTION ASSAY - IC50
ATTRIBUTE_MEASURED: pIC50
// pIC50 is dimensionless: -log10 of concentration (M)

**Q:** Need pIC50 of `COc1c(Cl)cc(C(=O)Nc2nonc2-c2ccc(F)cc2)cc1Cl` , thanks.
**A:** 5.60

----------
Test system: Plasmodium berghei
TEST_DETAILS: Luciferase/luciferin-expressing antifolate-resistant parasites were used to infect a culture of HepG2 cells that were pre-incubated with compounds. Infected hepatocytes emit light due to the luciferase reaction. Assay results are presented as the percent inhibition of light emission compared to control. […]
Type: functional
ASSAY_CONDITIONS: sporozoite, read-out: LUCIFERASE INFECTION ASSAY - IC90
Item-by-item account of IC90
// note: answer is a bare numeric in µM

Worked examples, 3 compounds total:
SMILES_STRING | VALUE_REPORTED
CCN1CCN(c2ccc(Cl)cc2NC(=O)c2sc(-c3ccccc3)nc2C)CC1 | 4.23
CCOC(=O)c1sc(NC(=O)c2ccc([N+](=O)[O-])s2)nc1C | 3.85
Cc1cc(C(=O)Nc2nc3ccc(Cl)cc3s2)c2c(C)nn(C)c2n1 | 9.09

# ---- query compound ----
**Q:** Need IC90 of `CC(C)NC(=O)c1c(NC(=O)c2cccc(F)c2)nc2ccccn12` , thanks.
**A:** 7.41
